Test system: U2OS
PROTOCOL NOTES: Here: values are normalized to the positive (DMSO; basel flux = defined as 100% suppression) and negative (250nM Torin1; mTOR inhibitor; maximal inducer of autophagy defined as 0% suppression) control compounds and represented as % of ER-phagy suppression. […] The impact of autophagy induction on cells is complex and depends on the affected target. […] Of note, treatment concentrations may be sub-optimal for specific compounds, leading to false negative annotations.
Format: functional, Homo sapiens
EXPERIMENTAL CONDITIONS: Compound Concentration 1 uM, Timepoint 60 hours, Culturing Media DMEM, 1 % Penicillin/Streptomycin, 10% Fetal bovin serum Add-On: blasticidin, Screening Media Control DMEM, 10% Fetal bovin serum Add-On: 1 µg/ml Doxycyclin, Screening Media Samples DMEM, 10% Fetal bovin serum Add-On: 1 µg/ml Doxycyclin 250nM Torin1
REPORTED ENDPOINT: ER-phagy suppression (%)
Give just the number in %; leave the unit off.

Asked: Please state recorded ER-phagy suppression (tested on U2OS) of CN(C)C(=O)/C(C#N)=C/c1ccc(-c2nc3cnc4c(ccn4C)c3n2C2CCCCC2)o1
Given back: -15.3462

More entries:
Asked: What value of ER-phagy suppression on U2OS does Cc1cnc(-c2cc(Cl)ccc2F)cc1-n1c(=O)n(CC(N)=O)c2ccccc21 have?
Given back: -20.9921

Asked: What ER-phagy suppression appears in the records for this compound with U2OS? CN(C)C(=O)/C(C#N)=C/c1ccc(-c2nc3cnc4[nH]ccc4c3n2C2CCCCC2)o1
Given back: -36.9146

Asked: Provide value of ER-phagy suppression for this record tested with U2OS: CN(C)C(=O)N1CC[C@H](NC2=Nc3cc(F)ccc3N(CC(F)F)c3ccc(Cl)cc32)C1
Given back: -31.4062

Asked: Missing value: ER-phagy suppression, U2OS, entry O=C(O)c1ccc2c(c1)nc(Nc1cccc(Cl)c1)c1ccncc12 . Fill in?
Given back: 11.5407

Asked: Form: Entry = Cc1ccc(N(C)c2cc(N(C)C3CC3)n3ncc(C#N)c3n2)cc1NC(=O)C1CC1 | System = U2OS | ER-phagy suppression = ____
Given back: 60.0735

Asked: Write down the reported ER-phagy suppression of CN1CCN(Cc2ccc(Nc3ncc(Cl)c(Nc4ccccc4S(=O)(=O)N(C)C)n3)cc2)CC1 , test system: U2OS.
Given back: 29.2244

Asked: For the record COc1cc(N(C)c2ccnc3ccc(C(F)(F)F)cc23)cc(OC)c1OC , what value of ER-phagy suppression is listed for U2OS?
Given back: -10.2278

----------
Test system: U2OS
PROTOCOL NOTES: Here: values are normalized to the negative (DMSO; defined as 0% autophagy induction) and positive (250nM Torin1; mTOR inhibitor; defined as maximal inducer of autophagy = 100%) control compounds and represented as % of autophagy induction. […] The impact of autophagy induction on cells is complex and depends on the affected target. As such, the magnitude of a phenotype may not be equally mirrored in the %-value of autophagy induction and vice versa. The dynamics of the induction may indicate the mode of activation: e.g. activation via phosphorylation or a signaling cascade may occur fast, while activation via transcription factors may take considerably longer. […] Of note, treatment concentrations may be sub-optimal for specific compounds, leading to false negative annotations.
Format: functional, Homo sapiens
EXPERIMENTAL CONDITIONS: Compound Concentration 0.5 uM, Timepoint 60 hours, Culturing Media DMEM, 1 % Penicillin/Streptomycin, 10% Fetal bovin serum Add-On: No, Screening Media Control DMEM, Screening Media Samples DMEM
REPORTED ENDPOINT: autophagy induction (%)
Numbers only; they are read as %.

Field: example entries. Status: answers known.
Asked: What value of measured autophagy induction is listed for COc1ccc(S(=O)(=O)N2c3ccc(Cl)cc3[C@](O)(c3ccccc3Cl)[C@@H]2C(=O)N2CCC[C@H]2C(N)=O)cc1OC ?
Given back: -16.7068

Asked: Name the recorded autophagy induction for O=C1N/C(=N/c2ccccc2F)S/C1=C\c1ccc(C(=O)O)cc1 .
Given back: -8.214

More entries:
Asked: What value of autophagy induction has been reported for the following compound? O=C(Cc1ccccc1)Nc1nc2ccc(Cl)cc2c2nc(-c3ccco3)nn12
Given back: 7.125
